observable: melting point

molecule | value observed
CCOP(=O)(OCC)C(Nc1ncc(Cl)cc1Cl)c1c(O)ccc2ccccc12 (stereo not shown) | 145 to 147 °C

Report melting point for each item below.
1. CCOP(=O)(OCC)C(Nc1ncc(Cl)cc1Cl)c1ccccc1O (stereo not shown)
2. CCOP(=O)(OCC)C(Nc1ncc(Cl)cc1Cl)c1ccc(O)cc1 (stereo not shown)
3. CCOP(=O)(OCC)C(Nc1ncc(Cl)cc1Cl)c1ccccc1OC (stereo not shown)
4. CCOP(=O)(OCC)C(Nc1ncc(Cl)cc1Cl)c1ccc(O)c(OC)c1 (stereo not shown)
5. CCOP(=O)(OCC)C(Nc1ncc(Cl)cc1Cl)c1ccc(N(C)C)cc1 (stereo not shown)
6. CCOP(=O)(OCC)C(Nc1ncc(Cl)cc1Cl)c1ccsc1 (stereo not shown)

["100 to 102 °C", "56 to 58 °C", "73 to 75 °C", "66 to 68 °C", "70 to 72 °C", "88 to 90 °C"]

Source: paper PMC11409709
